Field: EC50. Provide a value for each of the compounds that follow.
experimental protocol: NIH3T3 cell viability loss – ATP luminescence, mouse fibroblasts, counter-screen, dose response (AID 2010);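 further: cells exposed to compound for about 90 hours before reading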
Assay type: functional, cell-based
The source made the active and inactive calls. No stated cut-off is given here; in the data, actives have a measured EC50 and inactives only a lower limit.

CCN(Cc1ccncc1)C(=O)c1cc(COc2ccc(C)c(C)c2)on1 = > 60 µM (not active)
CN1CCC(OC(=O)c2ccccc2)CC1 = 58.6 µM (active)
CC(C)(C)c1cc(NCCCn2ccnc2)n2ncc(-c3ccc(Cl)cc3)c2n1 = 5.5 µM (active)
CN(C)CCCN(C(=O)c1ccc(C(=O)c2ccccc2)cc1)c1nc2ccc(F)cc2s1 = > 60 µM (not active)
CCOc1cc(NC(=O)c2ccccc2C(=O)O)c(OCC)cc1NC(=O)c1ccccc1F = > 60 µM (not active)

Look at each compound and report its EC50.
1. Cn1c(N=NO)nc2ccccc21
2. CCc1nnc(NC(=O)c2ccc(S(=O)(=O)N3CCCc4ccccc43)cc2)o1
3. COc1cc(/C=C/c2ccc3cccc(O)c3n2)c(Br)cc1O

Return:
1. < 6 µM (inconclusive)
2. 5.54 µM (active)
3. > 60 µM (not active)

Look at each compound and report its EC50.
1. C/C(=N\NC(=O)c1cc([N+](=O)[O-])cc([N+](=O)[O-])c1)c1ccco1
2. COC(=O)c1ccc(OC)c(CN2CCCN(Cc3cc(C)ccc3C)S2(=O)=O)c1
3. CCCOc1ccc(N2C(=O)CC(SC(=N)N3N=C(c4ccccc4)CC3c3ccccc3)C2=O)cc1 (configuration not stated)
4. Brc1ccc(-c2csc(N/N=C/c3cccnc3)n2)cc1

Return:
> 60 µM (not active)
> 60 µM (not active)
> 60 µM (not active)
> 60 µM (not active)
